Tested on: Streptococcus pneumoniae
Assay: Antibacterial activity against Streptococcus pneumoniae ATCC 6301
Assay type: functional
MIC reference
readout: MIC (µg/mL)

INSERT INTO assay_data (compound, tgt, unit_abbreviation, recorded_result) VALUES
  ('CC[C@H]1OC(=O)C[C@@H](O)[C@H](C)[C@@H](O[C@@H]2O[C@H](C)[C@@H](O)[C@H](N(C)C)[C@H]2O)[C@@H](CC=O)C[C@@H](C)C(=N/OC/C=C\c2ccc3nccnc3c2)/C=C/C(C)=C/C1CO (stereo partly drawn)', 'Streptococcus pneumoniae', 'µg/mL', 0.025),
  ('CC[C@H]1OC(=O)C[C@@H](O)[C@H](C)[C@@H](O[C@@H]2O[C@H](C)[C@@H](O)[C@H](N(C)C)[C@@H]2O)[C@@H](CCN2CC(C)CC(C)C2)C[C@@H](C)C(=N\OCCCc2ccc3ncccc3c2)/C=C/C(C)=C/C1CO (stereo partly drawn)', 'Streptococcus pneumoniae', 'µg/mL', 6.25),
  ('CC[C@H]1OC(=O)C[C@@H](O)[C@H](C)[C@@H](O[C@@H]2O[C@H](C)[C@@H](O)[C@H](N(C)C)[C@H]2O)[C@@H](CC=O)C[C@@H](C)C(=N\OCc2ccccc2)/C=C/C(C)=C/C1CO (stereo partly drawn)', 'Streptococcus pneumoniae', 'µg/mL', 0.2),
  ('CC[C@H]1OC(=O)C[C@@H](O)[C@H](C)[C@@H](O[C@@H]2O[C@H](C)[C@@H](O)[C@H](N(C)C)[C@H]2O)[C@@H](CC=O)C[C@@H](C)C(=N/OC/C=C\c2cnc3ccccc3c2)/C=C/C(C)=C/C1CO (stereo partly drawn)', 'Streptococcus pneumoniae', 'µg/mL', 0.025),
  ('CC[C@H]1OC(=O)C[C@@H](O)[C@H](C)[C@@H](O[C@@H]2O[C@H](C)[C@@H](O)[C@H](N(C)C)[C@H]2O)[C@@H](CC=O)C[C@@H](C)C(=N/OCCCCOc2ccc3ncccc3c2)/C=C/C(C)=C/C1CO (stereo partly drawn)', 'Streptococcus pneumoniae', 'µg/mL', 0.025),
  ('CC[C@H]1OC(=O)C[C@@H](O)[C@H](C)[C@@H](O[C@@H]2O[C@H](C)[C@@H](O[C@H]3C[C@@](C)(O)[C@@H](O)[C@H](C)O3)[C@H](N(C)C)[C@H]2O)[C@@H](CC=O)C[C@@H](C)C(=O)/C=C/C(C)=C/[C@@H]1CO[C@@H]1O[C@H](C)[C@@H](O)[C@@H](OC)[C@H]1OC [TYLOSIN]', 'Streptococcus pneumoniae', 'µg/mL', 0.098),
  ('CC[C@H]1OC(=O)[C@H](C)C(=O)[C@H](C)[C@@H](O[C@@H]2O[C@H](C)C[C@H](N(C)C)[C@H]2O)[C@](C)(OC)C[C@@H](C)C(=O)[C@H](C)[C@H]2N(CCCCn3cnc(-c4cccnc4)c3)C(=O)O[C@]12C [TELITHROMYCIN]', 'Streptococcus pneumoniae', 'µg/mL', 0.025),
  ('CC[C@H]1OC(=O)[C@H](C)[C@@H](O[C@H]2C[C@@](C)(OC)[C@@H](O)[C@H](C)O2)[C@H](C)[C@@H](O[C@@H]2O[C@H](C)C[C@H](N(C)C)[C@H]2O)[C@](C)(O)C[C@@H](C)C(=O)[C@H](C)[C@@H](O)[C@]1(C)O [ERYTHROMYCIN]', 'Streptococcus pneumoniae', 'µg/mL', 0.025);

---

MIC reference
Tested on: Streptococcus pneumoniae
Test: Antibacterial activity against macrolide resistant Streptococcus pneumoniae ATCC 700676
Format: functional
readout: MIC (µg/mL)

INSERT INTO measurements (compound, tgt, unit_abbreviation, measurement_qualifier, recorded_result) VALUES
  ('CC[C@H]1OC(=O)C[C@@H](O)[C@H](C)[C@@H](O[C@@H]2O[C@H](C)[C@@H](O)[C@H](N(C)C)[C@@H]2O)[C@@H](CCN2CC(C)CC(C)C2)C[C@@H](C)C(=N\OCc2ccc(F)cc2)/C=C/C(C)=C/C1CO (some centres undefined)', 'Streptococcus pneumoniae', 'µg/mL', '=', 0.39),
  ('CC[C@H]1OC(=O)C[C@@H](O)[C@H](C)[C@@H](O[C@@H]2O[C@H](C)[C@@H](O)[C@H](N(C)C)[C@H]2O)[C@@H](CC=O)C[C@@H](C)C(=N\OCC#Cc2cnc3ccccc3c2)/C=C/C(C)=C/C1CO (some centres undefined)', 'Streptococcus pneumoniae', 'µg/mL', '=', 0.049),
  ('CC[C@H]1OC(=O)C[C@@H](O)[C@H](C)[C@@H](O[C@@H]2O[C@H](C)[C@@H](O)[C@H](N(C)C)[C@@H]2O)[C@@H](CCN2CC(C)CC(C)C2)C[C@@H](C)C(=O)/C=C/C(C)=C/C1CO (some centres undefined)', 'Streptococcus pneumoniae', 'µg/mL', '=', 1.56),
  ('CC[C@H]1OC(=O)C[C@@H](O)[C@H](C)[C@@H](O[C@@H]2O[C@H](C)[C@@H](O)[C@H](N(C)C)[C@H]2O)[C@@H](CC=O)C[C@@H](C)C(=N/OCc2ccccc2)/C=C/C(C)=C/C1CO (some centres undefined)', 'Streptococcus pneumoniae', 'µg/mL', '=', 0.025),
  ('CC[C@H]1OC(=O)C[C@@H](O)[C@H](C)[C@@H](O[C@@H]2O[C@H](C)[C@@H](O)[C@H](N(C)C)[C@@H]2O)[C@@H](CCN2CC(C)CC(C)C2)C[C@@H](C)C(=N\OCCCCc2ccc3ccccc3c2)/C=C/C(C)=C/C1CO (some centres undefined)', 'Streptococcus pneumoniae', 'µg/mL', '>', 12.5),
  ('CC[C@H]1OC(=O)C[C@@H](O)[C@H](C)[C@@H](O[C@@H]2O[C@H](C)[C@@H](O)[C@H](N(C)C)[C@@H]2O)[C@@H](CCN2CC(C)CC(C)C2)C[C@@H](C)C(=N/OCCCCc2ccc3ncccc3c2)/C=C/C(C)=C/C1CO (some centres undefined)', 'Streptococcus pneumoniae', 'µg/mL', '=', 6.25),
  ('CC[C@H]1OC(=O)C[C@@H](O)[C@H](C)[C@@H](O[C@@H]2O[C@H](C)[C@@H](O)[C@H](N(C)C)[C@H]2O)[C@@H](CCN2CC(C)CC(C)C2)C[C@@H](C)C(=N/OCCCc2ccc3ncccc3c2)/C=C/C(C)=C/C1CO (some centres undefined)', 'Streptococcus pneumoniae', 'µg/mL', '=', 0.025),
  ('CC[C@H]1OC(=O)C[C@@H](O)[C@H](C)[C@@H](O[C@@H]2O[C@H](C)[C@@H](O)[C@H](N(C)C)[C@@H]2O)[C@@H](CCN2CC(C)CC(C)C2)C[C@@H](C)C(=N\OCCOc2ccccc2)/C=C/C(C)=C/C1CO (some centres undefined)', 'Streptococcus pneumoniae', 'µg/mL', '=', 0.78),
  ('CC[C@H]1OC(=O)C[C@@H](O)[C@H](C)[C@@H](O[C@@H]2O[C@H](C)[C@@H](O)[C@H](N(C)C)[C@@H]2O)[C@@H](CCN2CC(C)CC(C)C2)C[C@@H](C)C(=N\OCC(=O)N2CCN(c3ccccc3)CC2)/C=C/C(C)=C/C1CO (some centres undefined)', 'Streptococcus pneumoniae', 'µg/mL', '=', 4.56);

---

Measured MIC accompanies every entry in the list below.
System: Streptococcus pneumoniae
Assay: Antibacterial activity against macrolide resistant Streptococcus pneumoniae ATCC 700676
Assay type: functional
readout: MIC (µg/mL)

INSERT INTO measurements (compound, readout, unit_abbreviation, recorded_result) VALUES
  ('CC[C@H]1OC(=O)C[C@@H](O)[C@H](C)[C@@H](O[C@@H]2O[C@H](C)[C@@H](O)[C@H](N(C)C)[C@H]2O)[C@@H](CC=O)C[C@@H](C)C(=N\OCCOc2ccccc2)/C=C/C(C)=C/C1CO (some centres undefined)', 'MIC', 'µg/mL', 0.2),
  ('CC[C@H]1OC(=O)C[C@@H](O)[C@H](C)[C@@H](O[C@@H]2O[C@H](C)[C@@H](O)[C@H](N(C)C)[C@H]2O)[C@@H](C=O)C[C@@H](C)C(=N\OCCCc2ccc3ncccc3c2)/C=C/C(C)=C/C1CO (some centres undefined)', 'MIC', 'µg/mL', 0.025),
  ('CC[C@H]1OC(=O)C[C@@H](O)[C@H](C)[C@@H](O[C@@H]2O[C@H](C)[C@@H](O)[C@H](N(C)C)[C@H]2O)[C@@H](CC=O)C[C@@H](C)C(=N/OCCCCOc2ccc3ncccc3c2)/C=C/C(C)=C/C1CO (some centres undefined)', 'MIC', 'µg/mL', 0.025),
  ('CC[C@H]1OC(=O)[C@H](C)C(=O)[C@H](C)[C@@H](O[C@@H]2O[C@H](C)C[C@H](N(C)C)[C@H]2O)[C@](C)(OC)C[C@@H](C)C(=O)[C@H](C)[C@H]2N(CCCCn3cnc(-c4cccnc4)c3)C(=O)O[C@]12C [TELITHROMYCIN]', 'MIC', 'µg/mL', 0.098),
  ('CC[C@H]1OC(=O)C[C@@H](O)[C@H](C)[C@@H](O[C@@H]2O[C@H](C)[C@@H](O)[C@H](N(C)C)[C@H]2O)[C@@H](CC=O)C[C@@H](C)C(=N/OCC#Cc2cnc3ccccc3c2)/C=C/C(C)=C/C1CO (some centres undefined)', 'MIC', 'µg/mL', 0.025),
  ('CC[C@H]1OC(=O)C[C@@H](O)[C@H](C)[C@@H](O[C@@H]2O[C@H](C)[C@@H](O)[C@H](N(C)C)[C@H]2O)[C@@H](CC=O)C[C@@H](C)C(=N/OC/C=C\c2cnc3ccccc3c2)/C=C/C(C)=C/C1CO (some centres undefined)', 'MIC', 'µg/mL', 0.049),
  ('CC[C@H]1OC(=O)C[C@@H](O)[C@H](C)[C@@H](O[C@@H]2O[C@H](C)[C@@H](O)[C@H](N(C)C)[C@H]2O)[C@@H](CCN2C[C@H](C)C[C@H](C)C2)C[C@@H](C)C(=O)/C=C/C(C)=C/[C@@H]1CO[C@@H]1O[C@H](C)[C@@H](O)[C@@H](OC)[C@H]1OC [TILMICOSIN]', 'MIC', 'µg/mL', 0.78),
  ('CC[C@H]1OC(=O)C[C@@H](O)[C@H](C)[C@@H](O[C@@H]2O[C@H](C)[C@@H](O)[C@H](N(C)C)[C@H]2O)[C@@H](CC=O)C[C@@H](C)C(=N\OCc2ccccc2)/C=C/C(C)=C/C1CO (some centres undefined)', 'MIC', 'µg/mL', 0.2),
  ('CC[C@H]1OC(=O)[C@H](C)[C@@H](O[C@H]2C[C@@](C)(OC)[C@@H](O)[C@H](C)O2)[C@H](C)[C@@H](O[C@@H]2O[C@H](C)C[C@H](N(C)C)[C@H]2O)[C@](C)(O)C[C@@H](C)C(=O)[C@H](C)[C@@H](O)[C@]1(C)O [ERYTHROMYCIN]', 'MIC', 'µg/mL', 6.25);
